ASSAYED SYSTEM: cPLA2 (Homo sapiens)
Sequence (P47712 1-749): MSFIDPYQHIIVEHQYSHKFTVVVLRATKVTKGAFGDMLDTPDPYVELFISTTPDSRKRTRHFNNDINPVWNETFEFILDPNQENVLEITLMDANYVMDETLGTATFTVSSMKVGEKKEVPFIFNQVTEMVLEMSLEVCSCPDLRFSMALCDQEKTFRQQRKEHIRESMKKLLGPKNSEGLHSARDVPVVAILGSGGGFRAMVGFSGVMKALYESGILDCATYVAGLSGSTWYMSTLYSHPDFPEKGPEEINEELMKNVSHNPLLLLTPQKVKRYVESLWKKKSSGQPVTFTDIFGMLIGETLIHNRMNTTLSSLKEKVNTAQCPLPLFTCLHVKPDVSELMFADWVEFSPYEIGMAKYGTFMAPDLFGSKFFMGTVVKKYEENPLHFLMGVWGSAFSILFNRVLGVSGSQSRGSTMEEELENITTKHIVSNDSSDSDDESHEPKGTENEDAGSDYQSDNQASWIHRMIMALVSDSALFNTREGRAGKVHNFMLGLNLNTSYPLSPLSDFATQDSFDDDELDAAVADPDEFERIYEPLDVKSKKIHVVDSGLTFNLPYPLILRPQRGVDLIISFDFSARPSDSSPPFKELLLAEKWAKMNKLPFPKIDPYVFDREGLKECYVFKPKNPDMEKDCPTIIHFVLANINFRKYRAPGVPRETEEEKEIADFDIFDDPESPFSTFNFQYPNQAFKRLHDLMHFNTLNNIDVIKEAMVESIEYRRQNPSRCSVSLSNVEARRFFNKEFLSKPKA
EXPERIMENTAL ENDPOINT: IC50 (nM)

{"COMPOUND": "Cc1c(Cl)cc(F)cc1S(=O)(=O)NCCc1c(CCOc2ccc(C(=O)O)cc2)c2cc(Cl)ccc2n1C(c1ccccc1)c1ccccc1", "ASSAYED SYSTEM": "cPLA2 (Homo sapiens)", "EXPERIMENTAL ENDPOINT": "IC50", "ENDPOINT UNIT": "nM", "ENDPOINT VALUE": 530}
{"COMPOUND": "COC[C@@H]1CCCN1CCS(=O)(=O)NCCc1c(CCOc2ccc(C(=O)O)cc2)c2cc(Cl)ccc2n1C(c1ccccc1)c1ccccc1", "ASSAYED SYSTEM": "cPLA2 (Homo sapiens)", "EXPERIMENTAL ENDPOINT": "IC50", "ENDPOINT UNIT": "nM", "ENDPOINT VALUE": 1200}
{"COMPOUND": "O=C(O)c1ccc(OCCc2c(CCNS(=O)(=O)c3c(F)cc(F)cc3F)n(C(c3ccccc3)c3ccccc3)c3ccc(Cl)cc23)cc1", "ASSAYED SYSTEM": "cPLA2 (Homo sapiens)", "EXPERIMENTAL ENDPOINT": "IC50", "ENDPOINT UNIT": "nM", "ENDPOINT VALUE": 560}
{"COMPOUND": "Cc1cc(C)c(S(=O)(=O)NCCc2c(CCCc3ccc(C(=O)O)cc3)c3cc(Cl)ccc3n2C(c2ccccc2)c2ccccc2)c(C)c1", "ASSAYED SYSTEM": "cPLA2 (Homo sapiens)", "EXPERIMENTAL ENDPOINT": "IC50", "ENDPOINT UNIT": "nM", "ENDPOINT VALUE": 74}
{"COMPOUND": "Cc1ccc(S(=O)(=O)NCCc2c(CCOc3ccc(C(=O)O)cc3)c3cc(Cl)ccc3n2C(c2ccccc2)c2ccccc2)cc1Cl", "ASSAYED SYSTEM": "cPLA2 (Homo sapiens)", "EXPERIMENTAL ENDPOINT": "IC50", "ENDPOINT UNIT": "nM", "ENDPOINT VALUE": 370}
{"COMPOUND": "O=C(O)c1ccc(CCCc2c(CCNS(=O)(=O)c3ccccc3-c3ccccc3)n(C(c3ccccc3)c3ccccc3)c3ccc(Cl)cc23)cc1", "ASSAYED SYSTEM": "cPLA2 (Homo sapiens)", "EXPERIMENTAL ENDPOINT": "IC50", "ENDPOINT UNIT": "nM", "ENDPOINT VALUE": 200}
{"COMPOUND": "O=C(O)c1ccc(OCCc2c(CCNS(=O)(=O)CSc3ccc(F)cc3F)n(C(c3ccccc3)c3ccccc3)c3ccc(Cl)cc23)cc1", "ASSAYED SYSTEM": "cPLA2 (Homo sapiens)", "EXPERIMENTAL ENDPOINT": "IC50", "ENDPOINT UNIT": "nM", "ENDPOINT VALUE": 400}
{"COMPOUND": "O=C(O)c1ccc(OCCc2c(CCNS(=O)(=O)c3ccccc3Cl)n(C(c3ccccc3)c3ccccc3)c3ccc(Cl)cc23)cc1", "ASSAYED SYSTEM": "cPLA2 (Homo sapiens)", "EXPERIMENTAL ENDPOINT": "IC50", "ENDPOINT UNIT": "nM", "ENDPOINT VALUE": 500}
{"COMPOUND": "O=C(O)c1ccc(OCCc2c(CCNS(=O)(=O)c3ccccc3[N+](=O)[O-])n(C(c3ccccc3)c3ccccc3)c3ccc(Cl)cc23)cc1", "ASSAYED SYSTEM": "cPLA2 (Homo sapiens)", "EXPERIMENTAL ENDPOINT": "IC50", "ENDPOINT UNIT": "nM", "ENDPOINT VALUE": 370}
{"COMPOUND": "CCc1cccc(CC)c1S(=O)(=O)NCCc1c(CCCc2ccc(C(=O)O)cc2)c2cc(Cl)ccc2n1C(c1ccccc1)c1ccccc1", "ASSAYED SYSTEM": "cPLA2 (Homo sapiens)", "EXPERIMENTAL ENDPOINT": "IC50", "ENDPOINT UNIT": "nM", "ENDPOINT VALUE": 110}
{"COMPOUND": "O=C(O)c1ccc(OCCc2c(CCNS(=O)(=O)c3ccc(Cl)cc3Cl)n(C(c3ccccc3)c3ccccc3)c3ccc(Cl)cc23)cc1", "ASSAYED SYSTEM": "cPLA2 (Homo sapiens)", "EXPERIMENTAL ENDPOINT": "IC50", "ENDPOINT UNIT": "nM", "ENDPOINT VALUE": 650}
{"COMPOUND": "Cc1ccccc1S(=O)(=O)NCCc1c(CCCc2ccc(C(=O)O)cc2)c2cc(Cl)ccc2n1C(c1ccccc1)c1ccccc1", "ASSAYED SYSTEM": "cPLA2 (Homo sapiens)", "EXPERIMENTAL ENDPOINT": "IC50", "ENDPOINT UNIT": "nM", "ENDPOINT VALUE": 130}
{"COMPOUND": "Cc1c(S(=O)(=O)NCCc2c(CCCc3ccc(C(=O)O)cc3)c3cc(Cl)ccc3n2C(c2ccccc2)c2ccccc2)cnn1-c1ccccc1", "ASSAYED SYSTEM": "cPLA2 (Homo sapiens)", "EXPERIMENTAL ENDPOINT": "IC50", "ENDPOINT UNIT": "nM", "ENDPOINT VALUE": 150}
{"COMPOUND": "NC(=O)C1CCCN1CCS(=O)(=O)NCCc1c(CCOc2ccc(C(=O)O)cc2)c2cc(Cl)ccc2n1C(c1ccccc1)c1ccccc1 (centres unmarked)", "ASSAYED SYSTEM": "cPLA2 (Homo sapiens)", "EXPERIMENTAL ENDPOINT": "IC50", "ENDPOINT UNIT": "nM", "ENDPOINT VALUE": 1200}
{"COMPOUND": "O=C(O)CCc1ccc(S(=O)(=O)CCc2c(CCNS(=O)(=O)c3ccccc3Cl)n(C(c3ccccc3)c3ccccc3)c3ccc(Cl)cc23)cc1", "ASSAYED SYSTEM": "cPLA2 (Homo sapiens)", "EXPERIMENTAL ENDPOINT": "IC50", "ENDPOINT UNIT": "nM", "ENDPOINT VALUE": 200}
{"COMPOUND": "O=C(O)c1ccc(OCCc2c(CCNS(=O)(=O)c3cccc(-c4ccccc4)c3)n(C(c3ccccc3)c3ccccc3)c3ccc(Cl)cc23)cc1", "ASSAYED SYSTEM": "cPLA2 (Homo sapiens)", "EXPERIMENTAL ENDPOINT": "IC50", "ENDPOINT UNIT": "nM", "ENDPOINT VALUE": 1400}
{"COMPOUND": "O=C(O)c1ccc(OCCc2c(CCNS(=O)(=O)Cc3ccc(Cl)c(Cl)c3)n(C(c3ccccc3)c3ccccc3)c3ccc(Cl)cc23)cc1F", "ASSAYED SYSTEM": "cPLA2 (Homo sapiens)", "EXPERIMENTAL ENDPOINT": "IC50", "ENDPOINT UNIT": "nM", "ENDPOINT VALUE": 320}
{"COMPOUND": "O=C(O)c1ccc(CCCc2c(CCNS(=O)(=O)Cc3ccccc3[N+](=O)[O-])n(C(c3ccccc3)c3ccccc3)c3ccc(Cl)cc23)cc1", "ASSAYED SYSTEM": "cPLA2 (Homo sapiens)", "EXPERIMENTAL ENDPOINT": "IC50", "ENDPOINT UNIT": "nM", "ENDPOINT VALUE": 130}
{"COMPOUND": "N#Cc1ccccc1S(=O)(=O)NCCc1c(CCCc2ccc(C(=O)O)cc2)c2cc(Cl)ccc2n1C(c1ccccc1)c1ccccc1", "ASSAYED SYSTEM": "cPLA2 (Homo sapiens)", "EXPERIMENTAL ENDPOINT": "IC50", "ENDPOINT UNIT": "nM", "ENDPOINT VALUE": 450}
{"COMPOUND": "Cc1nc(-c2ccc(S(=O)(=O)NCCc3c(CCOc4ccc(C(=O)O)cc4)c4cc(Cl)ccc4n3C(c3ccccc3)c3ccccc3)s2)cs1", "ASSAYED SYSTEM": "cPLA2 (Homo sapiens)", "EXPERIMENTAL ENDPOINT": "IC50", "ENDPOINT UNIT": "nM", "ENDPOINT VALUE": 900}
